Molecular target: equine serum BChE (Equus caballus, UniProt P81908)
Construct: human erythrocyte AChE, equine serum BChE, and porcine liver CES were used; purchased Sigma-Aldrich; host or cells: equine serum (tissue-derived)
Sequence (P81908 whole entry): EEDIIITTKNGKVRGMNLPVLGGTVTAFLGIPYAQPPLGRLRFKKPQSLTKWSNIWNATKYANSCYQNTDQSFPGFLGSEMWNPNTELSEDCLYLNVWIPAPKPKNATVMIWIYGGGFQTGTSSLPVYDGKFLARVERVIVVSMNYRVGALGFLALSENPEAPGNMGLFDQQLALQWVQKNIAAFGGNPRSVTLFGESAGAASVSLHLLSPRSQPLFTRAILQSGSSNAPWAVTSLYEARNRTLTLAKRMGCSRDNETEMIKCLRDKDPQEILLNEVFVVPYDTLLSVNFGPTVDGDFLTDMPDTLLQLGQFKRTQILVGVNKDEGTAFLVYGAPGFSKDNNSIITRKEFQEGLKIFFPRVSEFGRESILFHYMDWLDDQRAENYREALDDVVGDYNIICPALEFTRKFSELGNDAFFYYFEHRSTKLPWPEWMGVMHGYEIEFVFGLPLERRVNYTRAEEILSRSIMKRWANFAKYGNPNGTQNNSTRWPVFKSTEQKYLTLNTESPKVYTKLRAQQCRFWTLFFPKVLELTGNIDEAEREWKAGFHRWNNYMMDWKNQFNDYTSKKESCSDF
Assay: biochemical
Settings: mean ± SEM, n = 3, read-out: Inhibitory activity against BChE, IC50
Method: Assessment of the esterase profile of new potential anti-AD molecules enables the estimation of both the primary pharmacological effects of the tested compounds—their inhibition of AChE and BChE—and their possible unwanted side effect—inhibition of CES, which hydrolyzes numerous ester-containing drugs. […] Chromophore absorbances were measured with a FLUOStar Optima microplate reader (BMG Labtech, Ortenberg, Germany). […]
QUANTITY KIND: IC50
State the value, then name its unit.

COc1ccccc1C(=O)NCCCCCCCCNc1c2c(nc3ccccc13)CCCC2 | 47.5 nM
O=C(NCCCCNc1c2c(nc3ccccc13)CCCC2)c1cc(F)c(F)cc1O | 29.1 nM
O=C(NCCCCCCNc1c2c(nc3ccccc13)CCCC2)c1cc(F)c(F)cc1O | 31.7 nM
COc1ccccc1C(=O)NCCCCNc1c2c(nc3ccccc13)CCCC2 | 10.5 nM
COc1cc(F)c(F)cc1C(=O)NCCCCNc1c2c(nc3ccccc13)CCCC2 | 54.7 nM
O=C(NCCCCCCCCNc1c2c(nc3ccccc13)CCCC2)c1ccccc1O | 10.4 nM
O=C(O)c1ccccc1O [Salicylic acid, reference compound] | 47600 nM
O=C(NCCCCCCCCNc1c2c(nc3ccccc13)CCCC2)c1cc(F)c(F)cc1O | 22.6 nM
COc1ccccc1C(=O)NCCCCCCNc1c2c(nc3ccccc13)CCCC2 | 37.7 nM

Consider the record given below.
Task: Answer with the recorded IC50 for the compound listed here: Oc1ccccc1C=NCCCCNc1c2c(nc3ccccc13)CCCC2 [10a]
Result: 127 nM

src = paper PMC9916969
